Target Or System: T1, hRET.mmh (human, UniProt P07949 29-635, biotinylated in the ELISA of Example 4 (biot-hRET.mmh); not in the SPR of Example 3)
T1 construct: also called biot-hRET.mmh; soluble monomeric human RET
Protocol: SPR Biacore T200, mAb capture, 37 C
Parameter: kon (M⁻¹ s⁻¹)
Kindly answer with a numeric value in M⁻¹ s⁻¹, unit omitted.

Guide cases for kon, answers given:
# Binder, Observed Measurement
rows = [
    ("H4H8084P (antibody, human IgG4, V domains shown, human IgG4 Fc (H4H prefix)) VH: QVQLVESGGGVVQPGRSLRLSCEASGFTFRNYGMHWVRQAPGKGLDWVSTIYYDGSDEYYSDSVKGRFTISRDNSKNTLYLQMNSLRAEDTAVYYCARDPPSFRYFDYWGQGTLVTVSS VL: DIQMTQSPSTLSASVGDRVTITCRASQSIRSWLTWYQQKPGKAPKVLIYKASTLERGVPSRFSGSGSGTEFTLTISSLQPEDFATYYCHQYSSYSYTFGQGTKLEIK", "1.06e+06"),
    ("H4H8071P (antibody, human IgG4, V domains shown, human IgG4 Fc (H4H prefix)) VH: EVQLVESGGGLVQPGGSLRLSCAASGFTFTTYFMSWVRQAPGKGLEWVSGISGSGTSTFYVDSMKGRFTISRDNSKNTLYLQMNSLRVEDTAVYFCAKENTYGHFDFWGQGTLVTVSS VL: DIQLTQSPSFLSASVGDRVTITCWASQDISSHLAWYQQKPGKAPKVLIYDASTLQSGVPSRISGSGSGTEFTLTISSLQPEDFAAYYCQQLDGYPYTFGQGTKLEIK", 236000),
]

Moving on to the next binder.
GET /value?item= H4H8056P (antibody, human IgG4, V domains shown, human IgG4 Fc (H4H prefix)) VH: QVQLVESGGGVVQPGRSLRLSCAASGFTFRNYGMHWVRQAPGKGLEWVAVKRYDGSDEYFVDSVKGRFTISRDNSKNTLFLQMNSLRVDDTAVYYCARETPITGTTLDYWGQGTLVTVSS VL: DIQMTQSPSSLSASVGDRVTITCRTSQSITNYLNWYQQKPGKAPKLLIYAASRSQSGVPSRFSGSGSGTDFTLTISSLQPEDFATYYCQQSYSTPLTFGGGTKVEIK &field=kon returns 326000

// provenance: patent US20220185900A1
